Assayed system: human Nav 1.8 (Homo sapiens)
Sequence (Q9Y5Y9 whole entry, looked up, the tested form may be a part): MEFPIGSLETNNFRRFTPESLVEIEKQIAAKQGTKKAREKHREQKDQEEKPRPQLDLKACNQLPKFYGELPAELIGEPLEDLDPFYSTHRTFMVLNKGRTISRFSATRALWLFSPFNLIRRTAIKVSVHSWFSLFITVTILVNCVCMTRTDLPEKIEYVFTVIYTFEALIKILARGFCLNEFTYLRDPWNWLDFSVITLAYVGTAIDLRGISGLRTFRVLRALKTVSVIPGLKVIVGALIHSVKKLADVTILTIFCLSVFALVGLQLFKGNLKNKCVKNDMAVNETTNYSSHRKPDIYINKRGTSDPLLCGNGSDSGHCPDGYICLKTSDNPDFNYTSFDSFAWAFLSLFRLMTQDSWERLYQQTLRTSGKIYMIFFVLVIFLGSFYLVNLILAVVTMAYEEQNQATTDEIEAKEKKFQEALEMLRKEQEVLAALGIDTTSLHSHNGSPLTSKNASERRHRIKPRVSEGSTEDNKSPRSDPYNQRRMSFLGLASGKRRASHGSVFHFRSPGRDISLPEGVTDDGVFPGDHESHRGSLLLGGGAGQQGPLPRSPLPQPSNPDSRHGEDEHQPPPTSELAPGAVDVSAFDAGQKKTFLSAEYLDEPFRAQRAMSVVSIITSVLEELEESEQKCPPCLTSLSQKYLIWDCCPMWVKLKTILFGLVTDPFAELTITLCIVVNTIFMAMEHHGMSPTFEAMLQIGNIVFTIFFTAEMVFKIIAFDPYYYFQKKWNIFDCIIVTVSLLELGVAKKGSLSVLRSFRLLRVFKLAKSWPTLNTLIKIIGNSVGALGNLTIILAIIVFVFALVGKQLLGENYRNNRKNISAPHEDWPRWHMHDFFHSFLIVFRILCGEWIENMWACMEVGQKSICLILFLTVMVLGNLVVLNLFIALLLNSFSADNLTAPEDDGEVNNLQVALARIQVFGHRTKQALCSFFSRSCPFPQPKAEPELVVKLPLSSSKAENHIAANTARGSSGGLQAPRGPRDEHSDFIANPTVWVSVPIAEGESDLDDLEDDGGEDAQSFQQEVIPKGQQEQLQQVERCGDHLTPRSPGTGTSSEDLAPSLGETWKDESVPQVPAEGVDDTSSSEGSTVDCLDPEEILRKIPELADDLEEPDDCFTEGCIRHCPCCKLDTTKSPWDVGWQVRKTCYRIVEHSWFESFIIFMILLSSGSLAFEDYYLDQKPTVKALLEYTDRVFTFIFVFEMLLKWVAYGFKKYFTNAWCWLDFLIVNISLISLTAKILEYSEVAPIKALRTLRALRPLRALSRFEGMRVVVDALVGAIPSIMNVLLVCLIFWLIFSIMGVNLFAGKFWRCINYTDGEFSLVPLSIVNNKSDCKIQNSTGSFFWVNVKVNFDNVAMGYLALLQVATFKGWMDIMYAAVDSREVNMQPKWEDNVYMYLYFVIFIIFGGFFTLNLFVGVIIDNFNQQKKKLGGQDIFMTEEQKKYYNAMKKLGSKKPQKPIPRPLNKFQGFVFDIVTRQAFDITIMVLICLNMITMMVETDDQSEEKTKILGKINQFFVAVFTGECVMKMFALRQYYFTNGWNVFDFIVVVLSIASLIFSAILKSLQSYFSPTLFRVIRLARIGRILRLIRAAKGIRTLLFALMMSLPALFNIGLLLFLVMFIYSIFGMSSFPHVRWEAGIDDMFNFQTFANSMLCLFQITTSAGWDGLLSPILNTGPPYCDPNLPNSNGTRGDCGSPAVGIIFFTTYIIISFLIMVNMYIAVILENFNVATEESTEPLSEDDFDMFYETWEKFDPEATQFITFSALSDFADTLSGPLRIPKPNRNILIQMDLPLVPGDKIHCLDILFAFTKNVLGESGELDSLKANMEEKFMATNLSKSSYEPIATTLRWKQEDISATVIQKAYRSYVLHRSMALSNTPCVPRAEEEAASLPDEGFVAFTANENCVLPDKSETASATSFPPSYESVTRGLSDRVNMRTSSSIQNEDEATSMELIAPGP
Assay remarks: E-VIPR assay detecting and measuring Nav inhibition (HEK cells expressing truncated human Nav 1.8)
Format: cell-based
Test context: in the Presence of Human Serum in the E-VIPR Assay; read-out: IC50
pIC50: −log10 of the molar value.
Assay metric: pIC50

Prompt: Would you kindly share the measured pIC50 for COc1c([C@@H]2C[C@](C)(C(F)(F)F)O[C@H]2C(=O)Nc2ccnc(C(N)=O)c2)ccc(F)c1C (single isomer, unassigned) ?
Response: 7.00 to 8.00

Prompt: Continue with COc1cc(F)ccc1[C@@H]1[C@@H](C(=O)Nc2ccnc(C(N)=O)c2)O[C@](C)(C(F)(F)F)[C@@H]1C (single isomer, unassigned)
Response: > 8.00

Prompt: Next record, please: [2H]C([2H])([2H])Oc1c([C@H]2[C@H](C(=O)Nc3cc[n+]([O-])c(C(N)=O)c3)O[C@@](C)(C(F)(F)F)[C@H]2C)ccc(F)c1F
Response: > 8.00

Prompt: Continue with CCOc1c([C@H]2[C@H](C(=O)Nc3ccnc(C(N)=O)c3)O[C@@](C)(C(F)(F)F)[C@H]2C)ccc(F)c1F
Response: > 8.00

Prompt: Lookup C[C@H]1[C@@H](c2ccc(F)cc2OC(F)F)[C@H](C(=O)Nc2ccnc(C(N)=O)c2)O[C@@]1(C)C(F)(F)F (stereo in doubt)
Response: 6.00 to 7.00

Prompt: Next up: COc1c([C@H]2[C@@H](C(=O)Nc3ccnc(C(N)=O)c3)OC(C)(C)[C@@H]2C)ccc(F)c1F (racemic)
Response: < 6.00
